test: protein stability index of a GFP-peptide fusion (yeast GPS) (PSI 1-4); higher = more stable; sorted into four equal gates, so the index is relative within each strain; details: san1∆
Listed sequences paired with reported protein stability index
quantity_kind: protein stability index

QMDGFDNLGQTKIIMAT [RPT4] = 3.66
SVSPQMNAILTDVKLTL [SMD1] = 2.83
PASKQGYLITPPKHTEL [SSN2] = 2.49
MTAQQAPKWYPSEDVAA [RPL6B] = 1.84
IAIAGTGQIEGLLDYMR [COR1] = 3.17
DLLNAASIESADILCPL [IRR1] = 2.92
NDILDELLCGMANKEWR [ECM29] = 2.72
DVILDYQTKKFYDYIKE [REC8] = 2.55
DVKLLHSQFMKDLKDDS [YJL039C/NUP192] = 2.98
MTVTFLILAGQVKVKGQ [YCS4] = 2.3
KLLLLRINSTDEDLHEF [SRB8] = 2.94
NTSSKRQKKKPTSAQKS [IRR1] = 2.5
KTGTKPAAVFAETLKHD [RPL4B] = 1.63
IQAGKFDNKSTSEEQEA [SNF2] = 2.84
ITPMNDDQCMLITTYSK [SIN4] = 1.98
SGTTNFMRNGLLEGLNE [UBP6] = 3.22
VWFSHPRRYGKGSRQCR [RPS29A] = 3.39
CFICLLHLANEHGLQIT [BRN1] = 2.61
ASGFGFGGSQPNSGTAT [YGR119C/NUP57] = 2.4

Source of measurements: the supplement of paper PMC9732359
